Tested system: human P2X3 receptor (Homo sapiens (Human), UniProt P56373)
Assay info: Intracellular calcium measurement (FLIPR, Fluo-4) of antagonist activity at human P2X3 receptors
Type: cell-based
Recorded conditions: human P2X3, FLIPR calcium assay, agonist α,β-Me-ATP; read-out: hP2X3 IC50
Method: Intracellular Calcium Measurement to Assess Antagonist Activity at Human P2X3 and Human P2X2/3 Receptors A fluorescent imaging plate reader (FLEX/FLIPR station; Molecular Devices) was used to monitor intracellular calcium levels using the calcium-chelating dye Fluo-4 (Molecular Probes). […] The fluorescence was measured for an interval of 90 sec at 2 sec intervals and analyzed based on the increase in peak relative fluorescence units (RFU) compared to the basal fluorescence. […]
Documented pIC50 across a set of compounds
Please keep in mind that pIC50 is minus log10 of the molar concentration; only the number is needed.

Look over these answered cases.
| Compound | Tested system | Measurement kind | Observed |
| --- | --- | --- | --- |
| Cc1cnc(-c2cc(OC[C@H]3CN(C)CCO3)cc(C(=O)N[C@H](C)c3ccc(C(F)(F)F)nc3)c2)s1 | human P2X3 receptor (Homo sapiens (Human), UniProt P56373) | pIC50 | 7.74 |
| Cc1ccc([C@@H](C)NC(=O)c2cc(O[C@H]3CCOC3)cc(-c3ncc(C)s3)c2)nn1 | human P2X3 receptor (Homo sapiens (Human), UniProt P56373) | pIC50 | 7.41 |
| Cc1ccc([C@@H](C)NC(=O)c2cc(OCC3CC3)cc(-c3ncc(C)s3)c2)nn1 | human P2X3 receptor (Homo sapiens (Human), UniProt P56373) | pIC50 | 8.52 |

Form: Entry = `Cc1cnc(-c2cc(OC3COC3)cc(C(=O)N[C@H](C)c3ccc(C(F)(F)F)nn3)c2)s1` | System = human P2X3 receptor (Homo sapiens (Human), UniProt P56373) | pIC50 = ____
7.49

----------
Tested system: human P2X2/3 receptor (Homo sapiens (Human), UniProt P56373+Q9UBL9)
Sequence (P56373 whole entry): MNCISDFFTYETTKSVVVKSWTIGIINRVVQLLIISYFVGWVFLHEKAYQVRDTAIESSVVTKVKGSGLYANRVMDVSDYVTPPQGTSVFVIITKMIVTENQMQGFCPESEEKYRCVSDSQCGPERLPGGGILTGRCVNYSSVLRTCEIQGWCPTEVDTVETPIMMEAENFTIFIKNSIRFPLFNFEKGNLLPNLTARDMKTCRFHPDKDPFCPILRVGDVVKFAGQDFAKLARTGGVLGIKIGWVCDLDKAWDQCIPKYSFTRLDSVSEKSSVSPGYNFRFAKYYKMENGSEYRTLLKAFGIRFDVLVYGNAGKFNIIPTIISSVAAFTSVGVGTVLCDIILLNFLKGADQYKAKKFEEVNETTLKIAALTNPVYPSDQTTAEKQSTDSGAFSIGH
Sequence (Q9UBL9 whole entry): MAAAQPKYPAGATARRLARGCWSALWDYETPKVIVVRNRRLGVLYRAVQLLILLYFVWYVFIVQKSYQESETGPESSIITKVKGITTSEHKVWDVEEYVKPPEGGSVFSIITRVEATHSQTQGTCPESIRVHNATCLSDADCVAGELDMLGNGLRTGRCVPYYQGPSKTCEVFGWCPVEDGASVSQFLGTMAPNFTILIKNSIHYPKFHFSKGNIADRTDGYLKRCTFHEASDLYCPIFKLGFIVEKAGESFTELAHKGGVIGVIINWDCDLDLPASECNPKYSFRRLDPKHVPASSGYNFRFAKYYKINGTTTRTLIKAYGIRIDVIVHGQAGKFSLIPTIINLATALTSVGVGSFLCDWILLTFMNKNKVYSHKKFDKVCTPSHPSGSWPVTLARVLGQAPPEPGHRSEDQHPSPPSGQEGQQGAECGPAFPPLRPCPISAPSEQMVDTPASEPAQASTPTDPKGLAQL
Assay info: Intracellular calcium measurement (FLIPR, Fluo-4) of antagonist activity at human P2X2/3 receptors
Format: cell-based
Recorded conditions: human P2X2/3, FLIPR calcium assay, agonist α,β-Me-ATP; read-out: hP2X2/3 IC50
Measured IC50 by item
# output: bare number, implied unit nM

Below are worked cases with known answers.
| Smiles notation | Tested system | Readout unit | Observed |
| --- | --- | --- | --- |
| C#CCOc1cc(C(=O)N[C@H](C)c2ccc(C(F)(F)F)nn2)cc(-c2ncc(C)s2)c1 | human P2X2/3 receptor (Homo sapiens (Human), UniProt P56373+Q9UBL9) | nM | 1140 |
| Cc1cnc(-c2cc(OC3CCS(=O)(=O)CC3)cc(C(=O)N[C@H](C)c3ccc(C(F)(F)F)nc3)c2)s1 | human P2X2/3 receptor (Homo sapiens (Human), UniProt P56373+Q9UBL9) | nM | 753 |
| Cc1cnc(-c2cc(OC[C@@H]3CN(C)C(=O)O3)cc(C(=O)N[C@H](C)c3cnc(C(F)(F)F)nc3)c2)s1 | human P2X2/3 receptor (Homo sapiens (Human), UniProt P56373+Q9UBL9) | nM | 1360 |
| Cc1cnc(-c2cc(OCC3(F)CNC3)cc(C(=O)N[C@H](C)c3cnc(C(F)(F)F)nc3)c2)s1 | human P2X2/3 receptor (Homo sapiens (Human), UniProt P56373+Q9UBL9) | nM | 1440 |
| Cc1cc(Oc2cc(C(=O)N[C@H](C)c3cnc(C(F)(F)F)nc3)cc(-c3ncc(C)s3)c2)ccn1 | human P2X2/3 receptor (Homo sapiens (Human), UniProt P56373+Q9UBL9) | nM | 14 |

# context switch: different molecule, same IC50
Find the recorded IC50 belonging to `Cc1cnc(-c2cc(OC[C@@H]3COCC(=O)N3C)cc(C(=O)N[C@H](C)c3cnc(C(F)(F)F)nc3)c2)s1` and report it.
1250

----------
Tested system: human P2X3 receptor (Homo sapiens (Human), UniProt P56373)
Assay info: Intracellular calcium measurement (FLIPR, Fluo-4) of antagonist activity at human P2X3 receptors
Format: cell-based
Recorded conditions: human P2X3, FLIPR calcium assay, agonist α,β-Me-ATP; read-out: hP2X3 IC50
Measurement kind: pIC50
Bear in mind: pIC50 is minus log10 of a mol/L concentration; give just that figure.

Examples with answers:
| Smiles notation | Observed |
| --- | --- |
| Cc1ccc([C@@H](C)NC(=O)c2cc(Oc3nnc(C)s3)cc(-c3ncc(C)s3)c2)nn1 | 6.94 |
| CCc1cnc(-c2cc(OC[C@@H]3CCOC3)cc(C(=O)N[C@H](C)c3cnc(C)cn3)c2)s1 | 8.00 |
| Cc1cnc(-c2cc(O[C@@H]3CCOC3)cc(C(=O)N[C@H](C)c3ccc(C(F)F)nc3)c2)s1 | 7.59 |
| Cc1ccc([C@@H](C)NC(=O)c2cc(O[C@H]3CCOC3)cc(-c3ncc(C)s3)c2)cn1 | 7.42 |
| CC(C)c1cnc(-c2cc(OC[C@H]3CCOC3)cc(C(=O)N[C@H](C)c3ccc(C(F)(F)F)nn3)c2)s1 | 7.21 |

Consider the compound shown here: `C[C@@H](NC(=O)c1cc(O[C@H]2CCOC2)cc(-c2ncc(Cl)s2)c1)c1ccc(C(F)(F)F)nn1` What is its recorded pIC50?
7.48

Param item = `C[C@@H](NC(=O)c1cc(OC[C@@H]2CCOC2)cc(-c2ncc(C3CCC3)s2)c1)c1ccc(C(F)(F)F)nn1` ; retrieve measured pIC50.
7.25

----------
Tested system: human P2X3 receptor (Homo sapiens (Human), UniProt P56373)
Assay info: Intracellular calcium measurement (FLIPR, Fluo-4) of antagonist activity at human P2X3 receptors
Type: cell-based
Recorded conditions: human P2X3, FLIPR calcium assay, agonist α,β-Me-ATP; read-out: hP2X3 IC50
Overview of reported pIC50 across a group of compounds:
On this scale, pIC50 is minus log10 of a concentration expressed in M (mol/L).

Examples with answers:
| Compound | Observed |
| --- | --- |
| CCc1cnc(-c2cc(OC3CCOCC3)cc(C(=O)N[C@H](C)c3cnc(C(F)(F)F)nc3)c2)s1 [Example 129] | 8.52 |
| Cc1cnc(-c2cc(OC[C@@H]3CN(C)CCO3)cc(C(=O)N[C@H](C)c3ccc(C(F)(F)F)nn3)c2)s1 [Example 374] | 7.26 |
| Cc1cnc(-c2cc(OCC34CC(CO3)N(C(=O)OC(C)(C)C)C4)cc(C(=O)N[C@H](C)c3cnc(C(F)(F)F)nc3)c2)s1 (some centres unmarked) [Example 404] | 7.36 |
| Cc1ccc(Oc2cc(C(=O)N[C@H](C)c3cnc(C(F)(F)F)nc3)cc(-c3ncc(C)s3)c2)cn1 [Example 108] | 7.96 |
| C[C@@H](NC(=O)c1cc(OC2CCOCC2)cc(-c2ncc(C3CCC3)s2)c1)c1cnc(C(F)(F)F)nc1 [Example 238] | 7.42 |
| Cc1cnc(-c2cc(OC3COC3)cc(C(=O)N[C@H](C)c3ccc(C(F)(F)F)nc3)c2)s1 [Example 148] | 7.48 |
| CCc1cnc(-c2cc(OC[C@H]3CN(C)CCO3)cc(C(=O)N[C@H](C)c3cnc(C(F)(F)F)nc3)c2)s1 [Example 377] | 8.30 |
| CCc1cnc(-c2cc(OC[C@@H]3CNCCO3)cc(C(=O)N[C@H](C)c3ccc(C(F)(F)F)nn3)c2)s1 [Example 414] | 7.54 |

Value lookup for pIC50; key = COC(=O)N1CCO[C@H](COc2cc(C(=O)N[C@H](C)c3cnc(C(F)(F)F)nc3)cc(-c3ncc(C)s3)c2)C1 [Example 393]
7.62

Can you share its pIC50? I mean this compound: CCc1cnc(-c2cc(OC3CCOCC3)cc(C(=O)NCc3ccc(C)nn3)c2)s1 [Example 235]
7.74

----------
Attribute: pIC50
Tested system: human P2X2/3 receptor (Homo sapiens (Human), UniProt P56373+Q9UBL9)
Assay info: Intracellular calcium measurement (FLIPR, Fluo-4) of antagonist activity at human P2X2/3 receptors
Type: cell-based
Recorded conditions: human P2X2/3, FLIPR calcium assay, agonist α,β-Me-ATP; read-out: hP2X2/3 IC50
Give only the number. pIC50 is defined as minus log10 of concentration in molar units.

| Compound | Measurement kind | Observed |
| --- | --- | --- |
| Cc1cnc(-c2cc(OC[C@H]3CN(C)CCO3)cc(C(=O)N[C@H](C)c3ccc(C(F)(F)F)nn3)c2)s1 | pIC50 | 5.55 |
| Cc1cnc(-c2cc(O[C@@H]3CCOC3)cc(C(=O)NC(C)c3ncc(F)cc3Cl)c2)s1 (some centres unmarked) | pIC50 | 5.96 |
| Cc1cnc(CNC(=O)c2cc(OCC3CC3)cc(-c3ncc(C)s3)c2)cn1 | pIC50 | 5.96 |
| Cc1ccc([C@@H](C)NC(=O)c2cc(OC[C@H]3CCOC3)cc(-c3ncc(Cl)s3)c2)nn1 | pIC50 | 6.60 |
| Cc1ccc([C@@H](C)NC(=O)c2cc(Oc3nccs3)cc(-c3ncc(C)s3)c2)nn1 | pIC50 | 6.41 |

Need pIC50, item Cc1cnc(-c2cc(OC3COC3)cc(C(=O)NC(C)c3ncc(F)cc3Cl)c2)s1 (centres unmarked)
5.82

Report pIC50 for `Cc1cnc(-c2cc(OC3CCNCC3)cc(C(=O)N[C@H](C)c3cnc(C(F)(F)F)nc3)c2)s1` please.
6.25

Item `CC#CCOc1cc(C(=O)N[C@H](C)c2ccc(C)nn2)cc(-c2ncc(C)s2)c1` has what recorded pIC50?
6.44
